# tested.on: Abeta:Zn (25:50 μM) Synthetic Aggregations (Homo sapiens, UniProt P05067)
# Construct: PB Compound Mediated Dissolution of Aggregated Abeta 1-42
# Sequence (P05067 672-713 limits assumed): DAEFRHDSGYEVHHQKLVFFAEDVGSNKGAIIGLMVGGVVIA
# assay.procedure: Disaggregation of Abeta:Zn synthetic aggregates (ThT fluorescence)
# assay.conditions: Abeta:Zn 25:50 μM aggregates
# Method: PB Compound Mediated Dissolution of Aggregated Abeta 1-42 Abeta1-42, is available from the Keck Laboratory, Yale University School of Medicine. PBS (pH 6.6): Sigma Cat# D-8662. Zn(ZnCl2): BDH Cat#100884E. […] By way of example of an amyloid composition, Abeta is dissolved in distilled water and peptide concentration is assessed by measured absorption at 214 nm in UV spectrometer. […] Samples are measured for ThT fluorescence using an LS55 (Perkin Elmer) fluorimeter in a cuvette (500 μl volume). […]
test.readout: EC50 (µM)

>>> reading("Br.C/C=C/Cn1cnc2c(O)c(Cl)cc(Cl)c2c1=O")
3.7
>>> reading("CN(C)Cc1ccc2c(Cl)cc(Cl)c(O)c2n1.Cl")
18.6
>>> reading("O=c1c(-c2ccc(Cl)cc2)cnc2c(O)c(I)ccn12")
19.7
>>> reading("CCCn1cnc2c(O)c(I)ccc2c1=O")
2.72
>>> reading("CCCc1cnc2c(O)c(I)ccn2c1=O")
5.6
>>> reading("Oc1cccc2sc(Cc3ccccc3)nc12")
6.89
